# Test system: L. donovani intracellular amastigotes
# procedureDetails: Modified resazurin-based viability analysis of L. donovani in infected macrophages
# Type: cell-based, Leishmania donovani
# conditionsUsed: Leishmania donovani, BMDM; infected BMDMs, 72 h
measurementType: IC50 (µM)
Report the figure in µM without appending any unit label.

Please give the measured IC50 for this compound: `NCC(=O)Nc1ccc(-n2nc(C(F)(F)F)cc2-c2ccc3c(ccc4ccccc43)c2)cc1` 1.44

Please give the measured IC50 for this compound: `CCCCCCCCCCCCCCCCOP(=O)([O-])OCC[N+](C)(C)C` 0.55

Please give the measured IC50 for this compound: `NC[C@@H]1O[C@H](O[C@H]2[C@@H](O)[C@H](O[C@@H]3[C@@H](O)[C@H](N)C[C@H](N)[C@H]3O[C@H]3O[C@H](CO)[C@@H](O)[C@H](O)[C@H]3N)O[C@@H]2CO)[C@H](N)[C@@H](O)[C@@H]1O` 11.6

Please give the measured IC50 for this compound: `C[C@@H]1[C@H](O)[C@@H](C)/C=C/C=C/C=C/C=C/C=C/C=C/C=C/[C@H](O[C@@H]2O[C@H](C)[C@@H](O)[C@H](N)[C@@H]2O)C[C@@H]2O[C@](O)(C[C@@H](O)C[C@@H](O)[C@H](O)CC[C@@H](O)C[C@@H](O)CC(=O)O[C@H]1C)C[C@H](O)[C@H]2C(=O)O` 0.033

* * *

# System: L. donovani extracellular promastigotes
# procedureDetails: Resazurin-based drug susceptibility assay on promastigotes
# Format: cell-based
# conditionsUsed: Leishmania donovani, 72 h drug at 25 °C
measurementType: IC50 (µM)
Report the figure in µM without appending any unit label.

Please give the measured IC50 for this compound: `CCCCCCCCCCCCCCCCOP(=O)([O-])OCC[N+](C)(C)C` 5.4

Please give the measured IC50 for this compound: `NCC(=O)Nc1ccc(-n2nc(C(F)(F)F)cc2-c2ccc3c(ccc4ccccc43)c2)cc1` 3.3

Please give the measured IC50 for this compound: `NC[C@@H]1O[C@H](O[C@H]2[C@@H](O)[C@H](O[C@@H]3[C@@H](O)[C@H](N)C[C@H](N)[C@H]3O[C@H]3O[C@H](CO)[C@@H](O)[C@H](O)[C@H]3N)O[C@@H]2CO)[C@H](N)[C@@H](O)[C@@H]1O` 59

Please give the measured IC50 for this compound: `C[C@@H]1[C@H](O)[C@@H](C)/C=C/C=C/C=C/C=C/C=C/C=C/C=C/[C@H](O[C@@H]2O[C@H](C)[C@@H](O)[C@H](N)[C@@H]2O)C[C@@H]2O[C@](O)(C[C@@H](O)C[C@@H](O)[C@H](O)CC[C@@H](O)C[C@@H](O)CC(=O)O[C@H]1C)C[C@H](O)[C@H]2C(=O)O` 0.047

Where these numbers come from: paper PMC6731340
